B1: TPR 5TU (parent)
chain: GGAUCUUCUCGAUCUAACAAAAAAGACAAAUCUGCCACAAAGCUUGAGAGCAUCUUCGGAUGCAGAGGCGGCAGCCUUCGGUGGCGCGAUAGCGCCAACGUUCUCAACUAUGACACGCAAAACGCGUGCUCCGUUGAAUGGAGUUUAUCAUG

Variants of: B1
Assay Notes: polymerase ribozyme fitness, log enrichment relative to wild type (log ratio); higher = more active; in vitro selection for triplet polymerase activity
This sample holds only a part of the variants without activity.
Measurement Kind: polymerase ribozyme fitness (log ratio)

A12C A142C; -1.32

Now, please, on to the next variant.
Requested field: polymerase ribozyme fitness (log ratio). Item: A3G A12G A29G C38U G42C G86U A138C
≤ -4.2

The measurements presented in this section are drawn from the RNAGym collection of RNA variant scans (doi:10.1073/pnas.2313332121).
